# method: HUVEC growth inhibition – cell-based, human, primary screen (AID 575);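 note: 100% = median of untreated cell wells with 0.1% DMSO on each plate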
# condition.details: HUVEC proliferation, CellTiter-Glo luminescence, 72 h; at 10 µM; hits give low values
This section presents compounds with their documented viability values.
State the answer as a number, implicitly in %.

Study these solved cases before continuing.
[[record]]
compound = "Cc1cc(C)cc(OCCCC(=O)O)c1"
quantitative_readout = 67.9

[[record]]
compound = "COc1ccccc1C1C(C(C)=O)=C(O)C(=O)N1CCc1ccccc1 (centres undefined)"
quantitative_readout = 98.1

[[record]]
compound = "CCOc1ccc(C(=O)OCc2nnc(-c3cccs3)o2)cc1OC"
quantitative_readout = 116

[[record]]
compound = "COCCNc1nc(C(C)(C)C)nc2c1nnn2Cc1ccccc1Cl"
quantitative_readout = 119

[[record]]
compound = "Cc1cc(C)n2cc(CSc3nnnn3-c3ccc(Cl)cc3)nc2n1"
quantitative_readout = 94.1


Turning now to a further record.
Task: Give me measured viability, please, for this compound: COc1cc(OC)cc(-c2nnc(SCC(=O)Nc3cc(C)on3)o2)c1
Result: 82.7

====

# method: growth suppression of PTEN-deleted HCT116, pilot screen, cell-based, HCT116 clonal line, CellTiter-Glo (AID 824);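 note: 0% = 20 µM Hyamine control and 100% = vehicle cell control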
# condition.details: 60 h, at 10 µM, hits give low values
Inconclusive results are not listed. Active and inactive are the calls of the source.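 Rule for the calls: active = viability at or below 27.92% in each of two runs, the all-compound median minus 4 SD; inconclusive = no clear call, values can overlap the other calls; inactive = the rest.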
measurement.kind: viability

Study these solved cases before continuing.
[[record]]
compound = "Cc1ccc(N(CC(=O)NC2CC3CCC2C3)S(C)(=O)=O)cc1C (stereo not given)"
measurement_kind = "viability"
result = "96.8% (inactive)"

[[record]]
compound = "COc1cccc(-c2nc(CS(=O)CC(=O)NCc3ccc4c(c3)OCO4)c(C)o2)c1 (stereo not given)"
measurement_kind = "viability"
result = "101% (inactive)"

[[record]]
compound = "Cc1cc(NS(=O)(=O)c2ccc(NC(=O)c3cnc4scc(C)n4c3=O)cc2)nc(C)n1"
measurement_kind = "viability"
result = "98.5% (inactive)"

[[record]]
compound = "Cc1csc(NC(=O)C2CCCN(S(=O)(=O)c3cccnc3)C2)n1 (stereo not given)"
measurement_kind = "viability"
result = "101% (inactive)"


Task: Give me measured viability, please, for this compound: CCOc1ccc(N(CC(=O)NCc2ccccc2)S(C)(=O)=O)cc1
Result: 101% (inactive)

====

# method: growth suppression of beta-catenin knockout HCT116, pilot screen, human colon tumor cells (AID 823);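 note: 0% = wells killed by 20 µM Hyamine and 100% = untreated DMSO cell wells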
# condition.details: CellTiter-Glo, 60 h, at 10 µM, hits give low values
Records with an inconclusive call do not appear. Active and inactive are the calls of the source.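 The calls were made as follows: active = cell viability at or below a set limit in both duplicate runs, the limit being the all-compound median minus 4 SD (cut at about 23% in these data, passing the limit was not always enough); inconclusive = no clear call, values can overlap the other calls; inactive = the rest.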
measurement.kind: viability

Study these solved cases before continuing.
[[record]]
molecule = "COc1ccc(CN2CCN(c3ncccn3)CC2)c(OC)c1"
measurement_kind = "viability"
result = "94.5% (inactive)"

[[record]]
molecule = "CCOc1ccc(-n2c(SCC(=O)Nc3ccc4c(c3)OCCO4)nc3c(c2=O)SCC3)cc1"
measurement_kind = "viability"
result = "84.1% (inactive)"


Task: Give me measured viability, please, for this molecule: CC(C)Sc1nc(O)c(Cc2ccccc2)c(=O)[nH]1
Result: 104% (inactive)

Task: Give me measured viability, please, for this molecule: CCOc1cccc2c1OC1(C)CC2NC(=O)N1c1cccc(Cl)c1 (stereo not drawn)
Result: 99.2% (inactive)

====

This section presents compounds with their documented viability values.
# method: growth suppression of beta-catenin knockout HCT116, pilot screen, human colon tumor cells (AID 823);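 note: 0% = wells killed by 20 µM Hyamine and 100% = untreated DMSO cell wells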
# condition.details: CellTiter-Glo, 60 h, at 10 µM, hits give low values
Results filed as inconclusive are left out.
State the answer as a number, implicitly in %.

Study these solved cases before continuing.
[[record]]
compound = "Cc1cc(OCC(=O)Nc2cc(-c3nn4c(C)nnc4s3)ccc2C)ccc1Cl"
unit_name = "%"
quantitative_readout = 95.6

[[record]]
compound = "CSC1=NCCN1C(=O)c1ccc(S(=O)(=O)N2CCOCC2)cc1"
unit_name = "%"
quantitative_readout = 102

[[record]]
compound = "CC1CCN(C(=O)CSc2nc(N)c3c4c(sc3n2)CN(C)CC4)CC1"
unit_name = "%"
quantitative_readout = 102

[[record]]
compound = "COc1ccc(C2CC(c3ccc(F)cc3)Nc3nc(N)nn32)cc1 (stereo not given)"
unit_name = "%"
quantitative_readout = 98.1


Turning now to a further record.
Task: Give me measured viability, please, for this compound: Cc1ccc2oc3c(c(=O)c2c1)C(c1cccc(O)c1)N(c1ccccn1)C3=O (stereo not given)
Result: 79.4
